Data provenance: patent US12569454B2

test system: mouse; assay: Mouse studies: open field, balance beam, functional observational battery, treadmill; type: in vivo; details: open field observations, treadmill analysis
Property name: toxicity in mouse studies

Q) Record CC(=O)c1c(O)cc(NC(=O)C2CCCC2=O)cc1O (stereo not shown) [gavinol] : what is its toxicity in mouse studies with mouse?
A) not toxic

Q) Form field: toxicity in mouse studies recorded for CC(=O)Nc1cc(O)c(C(C)=O)c(O)c1 [NAHA, 4-N-acetyl-2,6-dihydroxyacetaphenone] with mouse (enter value)
A) not toxic

Q) // map CC(=O)C1CCCC1=O (stereo not shown) [2-ACP, 2-acetylcyclopentanone] to recorded toxicity in mouse studies (system: mouse)
A) not toxic

Q) Item CC(=O)c1c(O)cc(O)cc1O [THA, 2′,4′,6′-trihydroxyacetophenone] with mouse - toxicity in mouse studies?
A) not toxic

====

system: freshly isolated mouse hepatocytes; experiment: CisPt effect on cell viability with or without protectant; type: cell-based; conditions: co-administration with CisPt, FIG. 3B
Property name: protection against CisPt toxicity

Q) Item CC(=O)N[C@@H](CS)C(=O)O [NAC, N-acetyl-L-cysteine, reference compound] has what recorded protection against CisPt toxicity?
A) only modest protection

Q) If you can, please state the reported protection against CisPt toxicity value of O=S([O-])([O-])=S.[Na+].[Na+] [STS, sodium thiosulfate, reference compound] .
A) only modest protection
